The reported measurements were obtained from the NIST ThermoML archive (doi:10.1016/j.jct.2016.08.006).

# assay-procedure: molar heat capacity at constant pressure
# applied-conditions: 333.2 K; 101.3 kPa; Liquid; Small sample (50 mg) DSC
Can you tell me molar heat capacity at constant pressure for the items I'm about to list?
One number for each entry, in J/K/mol.

Some solved entries appear below for comparison.
Req: I am curious: what molar heat capacity at constant pressure value has been reported for Cc1ccccc1 ?
Resp: 167

Req: Also, O please.
Resp: 75.41

Req: Also, NCCN1CCNCC1 please.
Resp: 300.7

Please find the next compound below.
Req: I am curious: what molar heat capacity at constant pressure value has been reported for CNCCN(C)C ?
Resp: 276

###

# assay-procedure: molar heat capacity at constant pressure
# applied-conditions: 348.2 K; 101.3 kPa; Liquid; Small sample (50 mg) DSC
Can you tell me molar heat capacity at constant pressure for the items I'm about to list?
Numbers only, in J/K/mol.

Some solved entries appear below for comparison.
Req: I am curious: what molar heat capacity at constant pressure value has been reported for O ?
Resp: 75.55

Req: Also, CNCCN(C)C please.
Resp: 283.4

Req: Also, Cc1ccccc1 please.
Resp: 172.8

Further cases:
Req: I am curious: what molar heat capacity at constant pressure value has been reported for NCCN1CCNCC1 ?
Resp: 303.6
